Origin of measurements: paper PMC11876601

test system: HPDE; test: cells; design: ATPlite luminescence viability of PDAC cell lines, 11-dose single-agent curves, 4-parameter fit; settings: HPDE, 72 h, read-out: EC50 [nM]
Measured property: EC50 (nM)
Return type: number; implicit unit nM.

Query :: Respond only with EC50 recorded for `CN1CCN(c2ccc(C(=O)Nc3n[nH]c4ccc(Cc5cc(F)cc(F)c5)cc34)c(NC3CCOCC3)c2)CC1`
Result :: 3900

Query :: Respond only with EC50 recorded for `Cc1ccc(NC(=O)c2ccc(CN3CCN(C)CC3)cc2)cc1Nc1nc(-c2cccnc2)cs1`
Result :: 5500

Query :: Respond only with EC50 recorded for `CC(C)NC(=O)[C@H]1CC[C@@H](n2/c(=N/C(=O)c3ccc(F)cc3)[nH]c3ccc(CN4CCC(C(C)(C)O)CC4)cc32)CC1`
Result :: 1270

Query :: Respond only with EC50 recorded for `C#Cc1cccc(Nc2ncnc3cc(OCCOC)c(OCCOC)cc23)c1`
Result :: 552

Query :: Respond only with EC50 recorded for `Cc1cc(Nc2ncc(Cl)c(Nc3ccccc3S(=O)(=O)C(C)C)n2)c(OC(C)C)cc1C1CCNCC1`
Result :: 1550

Query :: Respond only with EC50 recorded for `COc1cc2ncnc(Nc3cccc(Cl)c3F)c2cc1OC(=O)N1CCN(C)C[C@H]1C`
Result :: 483

Query :: Respond only with EC50 recorded for `C[C@@H](Oc1cc(-c2cnn(C3CCNCC3)c2)cnc1N)c1c(Cl)ccc(F)c1Cl`
Result :: 8110

Query :: Respond only with EC50 recorded for `C=CC(=O)N1CCC[C@@H](n2nc(-c3ccc(Oc4ccccc4)cc3)c3c(N)ncnc32)C1`
Result :: 521

Query :: Respond only with EC50 recorded for O=C(/C=C\n1cnc(-c2cc(C(F)(F)F)cc(C(F)(F)F)c2)n1)NNc1cnccn1 [Selinexor]
Result :: 37.7

Query :: Respond only with EC50 recorded for `Nc1cc(C(F)(F)F)c(-c2cc(N3CCOCC3)nc(N3CCOCC3)n2)cn1`
Result :: 1130

Query :: Respond only with EC50 recorded for `CCn1c(=O)c(-c2cc(NC(=O)Nc3ccccc3)c(F)cc2Br)cc2cnc(NC)cc21`
Result :: 901

Query :: Respond only with EC50 recorded for `CN(C)CCCOc1ccc(-c2ccc3ncc4c(c3c2)n(C2CCOCC2)c(=O)n4C)cn1`
Result :: 10400

Query :: Respond only with EC50 recorded for `C1=N/C2=N/c3ccc(OCCN4CCCC4)c(c3)COC/C=C/COCc3cccc(c3)C(=C1)N2`
Result :: 1340

Query :: Respond only with EC50 recorded for `COc1cc2/c(=N/c3ccc(Br)cc3F)nc[nH]c2cc1OCC1CCN(C)CC1`
Result :: 1520
